# Test system: GENE-TOX genotoxicity assays, various organisms and cells
# test-description: GENE-TOX mutagenicity studies
# reported-conditions: Species/Cell Type: Escherichia coli polA (W3119 vs P3478); Assay Type: Rec-assay, DNA effects (bacterial DNA repair); Assay Code: RE1+; Evaluation Type: Evaluation A (Pre-1980)
Calls of active or inactive are those of the source. No rule for the calls is given here.
readout-name: mutagenic call

Example entries and their recorded answers appear below.
compound	assayed-target	mutagenic call
OCCBr	GENE-TOX genotoxicity assays, various organisms and cells	active; positive
CCN(N=O)C(N)=O	GENE-TOX genotoxicity assays, various organisms and cells	active; positive
O=C1CCO1	GENE-TOX genotoxicity assays, various organisms and cells	active; positive
CN(N=O)C(N)=O	GENE-TOX genotoxicity assays, various organisms and cells	active; positive
CN(C)c1ccc2cc3ccc(N(C)C)cc3nc2c1	GENE-TOX genotoxicity assays, various organisms and cells	active; positive
O=CC1CO1 (stereo not given)	GENE-TOX genotoxicity assays, various organisms and cells	active; positive

[Q] Fill in the blank: the reported mutagenic call of CC(=O)ON(C(C)=O)c1ccc2c(c1)Cc1ccccc1-2 is ____.
[A] active; positive

[Q] Fill in the blank: the reported mutagenic call of CC(C)(C)I is ____.
[A] active; positive

[Q] Fill in the blank: the reported mutagenic call of CCN(CC)CCNc1ccc(C)c2sc3ccccc3c(=O)c12 is ____.
[A] active; positive

[Q] Fill in the blank: the reported mutagenic call of [N-]=[N+]=CC(=O)OC[C@H](N)C(=O)O is ____.
[A] active; positive

[Q] Fill in the blank: the reported mutagenic call of O=[N+]([O-])c1ccc2c(c1)Cc1ccccc1-2 is ____.
[A] active; positive

[Q] Fill in the blank: the reported mutagenic call of CN(N=O)C(=O)N[C@@H](C=O)[C@@H](O)[C@H](O)[C@H](O)CO is ____.
[A] active; positive

[Q] Fill in the blank: the reported mutagenic call of CS(=O)(=O)OCCCCOS(C)(=O)=O is ____.
[A] active; positive

[Q] Fill in the blank: the reported mutagenic call of ClC(Cl)C(Cl)Cl is ____.
[A] active; positive

[Q] Fill in the blank: the reported mutagenic call of O=S1(=O)CCCO1 is ____.
[A] active; positive

###

# System: GENE-TOX genotoxicity assays, various organisms and cells
# test-description: GENE-TOX mutagenicity studies
# reported-conditions: Species/Cell Type: Salmonella typhimurium (one or more of the five standard strains: TA98, TA100, TA1535, TA1537, and TA1538); Assay Type: Histidine reverse gene mutation, Ames assay; Assay Code: SALT; Evaluation Type: Evaluation A (Pre-1980)
readout-name: mutagenic call

Example entries and their recorded answers appear below.
compound	readout-name	value-observed
CC1(C)N=C(N)N=C(N)N1OCCCOc1cc(Cl)c(Cl)cc1Cl	mutagenic call	no conclusion
O=NN(CCCO)CCCCO	mutagenic call	no conclusion
CS(=O)(=O)c1ccc([C@H](O)[C@H](CO)NC(=O)C(Cl)Cl)cc1	mutagenic call	no conclusion
O=S(=O)(O)c1cc(-n2nc3ccc4ccccc4c3n2)ccc1/C=C/c1ccccc1	mutagenic call	no conclusion
O=NN(CCCCO)CCCCO	mutagenic call	no conclusion

[Q] Fill in the blank: the reported mutagenic call of CC[C@@]1(O)C[C@H](O[C@H]2C[C@H](NC)[C@H](O[C@H]3C[C@H](O)[C@H](O[C@H]4CCC(=O)[C@H](C)O4)[C@H](C)O3)[C@H](C)O2)c2c(cc3c(c2O)C(=O)c2c(O)cccc2C3=O)[C@H]1C(=O)OC is ____.
[A] no conclusion

[Q] Fill in the blank: the reported mutagenic call of CC(=O)OC[C@]12C[C@H](OC(=O)CC(C)C)C(C)=C[C@H]1O[C@@H]1[C@H](O)[C@@H](OC(C)=O)[C@@]2(C)[C@]12CO2 is ____.
[A] no conclusion

[Q] Fill in the blank: the reported mutagenic call of OCCN(CCO)c1nc(-c2cccs2)nc2ccccc12 is ____.
[A] no conclusion

[Q] Fill in the blank: the reported mutagenic call of CC1CN(N=O)CC(C)N1C(=O)c1ccccc1 (centres undefined) is ____.
[A] no conclusion

###

# System: GENE-TOX genotoxicity assays, various organisms and cells
# test-description: GENE-TOX mutagenicity studies
# reported-conditions: Species/Cell Type: Mouse lymphoma (L5178Y) cells; Assay Type: Forward gene mutation at the thymidine kinase (TK) locus; chromosome aberrations; Assay Code: L51+; Evaluation Type: Evaluation A (Pre-1980)
Activity calls are given as the source filed them. No rule for the calls is given here.
readout-name: mutagenic call

Example entries and their recorded answers appear below.
compound	mutagenic call
Nc1ncc2[nH]cnc2n1	active; positive
O=c1[nH]cc(N(CCCl)CCCl)c(=O)[nH]1	active; positive
CC/C(=C(/CC)c1ccc(O)cc1)c1ccc(O)cc1	active; positive
CCC1CCCCN1CCNc1ccc(CO)c2sc3ccccc3c(=O)c12 (centres undefined)	active; positive
CCNCCNc1ccc(CO)c2sc3cc(Cl)ccc3c(=O)c12	active; positive
O=c1c2ccccc2sc2c(CO)ccc(NCCN3CCCCC3)c12	active; positive
O=C1CCO1	active; positive
CCN(CC)CCn1nc2c3c(c(CO)ccc31)Sc1ccccc1-2	active; positive
Nc1ccc2cc3ccc(N)cc3nc2c1	active; positive
NC(=O)/C(=C\c1ccc([N+](=O)[O-])o1)c1ccco1	active; positive

Now let's try a different one.
[Q] Fill in the blank: the reported mutagenic call of CI is ____.
[A] active; positive

###

# Tested on: GENE-TOX genotoxicity assays, various organisms and cells
# test-description: GENE-TOX mutagenicity studies
# reported-conditions: Species/Cell Type: Nonhuman; Assay Type: Sister-chromatid exchange (SCE) in vivo; Assay Code: SC3T; Evaluation Type: Evaluation A (Pre-1980)
readout-name: mutagenic call

c1ccc2c(c1)ccc1c3ccccc3ccc21 no conclusion
c1ccc2c(c1)ccc1ccccc12 no conclusion
c1ccc2cc3c(ccc4ccccc43)cc2c1 no conclusion

###

# Test system: GENE-TOX genotoxicity assays, various organisms and cells
# test-description: GENE-TOX mutagenicity studies
# reported-conditions: Species/Cell Type: Drosophila melanogaster; Sex: Male; Assay Type: Heritable translocation test, chromosome aberrations; Assay Code: DHTT; Evaluation Type: Evaluation A (Pre-1980)
# Source text: GENE-TOX provides genetic toxicology (mutagenicity) test data from expert peer review of open scientific literature for more than 3,000 chemicals from the United States Environmental Protection Agency (EPA). GENE-TOX was established to select assay systems for evaluation, review data in the scientific literature, and recommend proper testing protocols and evaluation procedures for these systems. GENE-TOX covers the years 1991 - 1998. It is no longer updated. […]
readout-name: mutagenic call

Example entries and their recorded answers appear below.
compound	value-observed
NCCc1c[nH]c2ccc(O)cc12 (tested in a mixture with another compound)	no conclusion
CCc1cn([C@H]2C[C@H](O)[C@@H](CO)O2)c(=O)[nH]c1=O	no conclusion
O=S(O)CO	no conclusion
O=C1NS(=O)(=O)c2ccccc21	no conclusion
CCN(N=O)C(N)=O	no conclusion

[Q] What is its mutagenic call for GENE-TOX genotoxicity assays, various organisms and cells? Entry: CC(=O)N(C)N=O
[A] no conclusion

[Q] What is its mutagenic call for GENE-TOX genotoxicity assays, various organisms and cells? Entry: ONC1CCCCC1
[A] no conclusion

[Q] What is its mutagenic call for GENE-TOX genotoxicity assays, various organisms and cells? Entry: COc1cc2c(c3oc(=O)c4c(c13)CCOC4=O)C1C=COC1O2 (stereo not drawn)
[A] no conclusion

###

# Test system: GENE-TOX genotoxicity assays, various organisms and cells
# test-description: GENE-TOX mutagenicity studies
# reported-conditions: Species/Cell Type: Salmonella typhimurium (one or more of the five standard strains: TA98, TA100, TA1535, TA1537, and TA1538); Assay Type: Histidine reverse gene mutation, Ames assay; Assay Code: SALT; Evaluation Type: Evaluation A (Pre-1980)
readout-name: mutagenic call

Example entries and their recorded answers appear below.
O=CNc1nc(-c2cc([N+](=O)[O-])c[nH]2)cs1 no conclusion
COC(=O)C[C@@H]1Cc2cc3c(-c4c(OC)cc(O)c5c(O)c6c(cc45)C[C@@H](CC(=O)OC)OC6=O)c(OC)cc(O)c3c(O)c2C(=O)O1 no conclusion
CCNc1nc(Cl)nc(NCC)n1 no conclusion
COc1cccc2oc3c4c(cc(OC)c3c(=O)c12)O[C@H]1OC=C[C@@H]41 no conclusion

Now let's try a different one.
[Q] Fill in the blank: the reported mutagenic call of CC(=O)Nc1ccc(CC(=O)c2ccccc2)cc1 is ____.
[A] no conclusion

###

# System: GENE-TOX genotoxicity assays, various organisms and cells
# test-description: GENE-TOX mutagenicity studies
# reported-conditions: Species/Cell Type: Neurospora crassa; Assay Type: Forward gene mutation; Assay Code: NEF+; Evaluation Type: Evaluation A (Pre-1980)
The source made the active and inactive calls. No rule for the calls is given here. Numbered stars: 1 amine (or outer) side, 2 acyl side, 3 side chain; on linkers, the order of the positions; unused ones are H or OH. Bridge positions count the residues as written; N and C are the ends. Square brackets hold non-standard residues; d marks the D form. Peptide text beside a SMILES is read from it. I, II: the chains in the order shown. Actinocin(9to1) = Cc1c2oc3c(C)ccc(C(=O)[*:1])c3nc-2c(C(=O)[*:2])c(N)c1=O; NMeV = CN[C@H](C(=O)O)C(C)C; Sar = CNCC(=O)O
readout-name: mutagenic call

Example entries and their recorded answers appear below.
compound	mutagenic call
CC(C)NC(=O)/C=C/c1ccc([N+](=O)[O-])o1	active; positive
COS(C)(=O)=O	active; positive
Cc1c2oc3c(C)ccc(C(=O)N[C@@H]4C(=O)N[C@H](C(C)C)C(=O)N5CCC[C@H]5C(=O)N(C)CC(=O)N(C)[C@@H](C(C)C)C(=O)O[C@@H]4C)c3nc-2c(C(=O)N[C@@H]2C(=O)N[C@H](C(C)C)C(=O)N3CCC[C@H]3C(=O)N(C)CC(=O)N(C)[C@@H](C(C)C)C(=O)O[C@@H]2C)c(N)c1=O (I: T[dV]P[Sar][NMeV] / II: T[dV]P[Sar][NMeV]; ester I:1-I:C, II:1-II:C; linker I:N-II:N via Actinocin(9to1))	active; positive
CCN(CC)CCn1nc2c3c(c(C)ccc31)Sc1ccccc1-2	active; positive

[Q] Fill in the blank: the reported mutagenic call of Cc1cc(N=Nc2ccccc2C)ccc1N is ____.
[A] active; positive

[Q] Fill in the blank: the reported mutagenic call of COc1cc2c(c3oc(=O)c4c(c13)CCOC4=O)[C@@H]1C=CO[C@@H]1O2 is ____.
[A] active; positive

[Q] Fill in the blank: the reported mutagenic call of CN(C)N=Nc1c(Cl)cc(Cl)cc1Cl is ____.
[A] active; positive

[Q] Fill in the blank: the reported mutagenic call of Cc1cccc(N=Nc2ccc(N(C)C)cc2)c1 is ____.
[A] active; positive
